# Tested on: L. acidophilus NCFM
# procedure.summary: RNA-seq transcriptional analysis of L. acidophilus NCFM growing on plant glycosides
# Format: cell-based, Lactobacillus acidophilus
# conditions: gene LBA0328 (Hypothetical protein)
For each record, write down the corresponding Transcripts per million (rpm).
The reply should consist of the numeric value with the unit placed after it.

Task item: Report Transcripts per million (rpm), nothing else, for this compound: OCc1ccccc1O[C@@H]1O[C@H](CO)[C@@H](O)[C@H](O)[C@H]1O [Salicin]
Reply: 13.3 rpm

Task item: Report Transcripts per million (rpm), nothing else, for this compound: O=c1ccc2cc(O[C@@H]3O[C@H](CO)[C@@H](O)[C@H](O)[C@H]3O)c(O)cc2o1 [Esculin]
Reply: 55.9 rpm

Task item: Report Transcripts per million (rpm), nothing else, for this compound: N#C[C@H](O[C@@H]1O[C@H](CO[C@@H]2O[C@H](CO)[C@@H](O)[C@H](O)[C@H]2O)[C@@H](O)[C@H](O)[C@H]1O)c1ccccc1 [Amygdalin]
Reply: 9 rpm

Task item: Report Transcripts per million (rpm), nothing else, for this compound: OC[C@H]1O[C@@H](O[C@H]2[C@H](O)[C@@H](O)[C@@H](O)O[C@@H]2CO)[C@H](O)[C@@H](O)[C@H]1O [Lac]
Reply: 13.2 rpm
